- Test system: Trypanosoma brucei rhodesiense
- Assay Remarks: In vitro anti-protozoan activity against T. b. r.
- Format: cell-based
- Assay Context: Trypanosoma brucei, RHODESIENSE; concentration that gives 50% growth inhibition; average of duplicate determinations; K = 1,000; read-out: T.b.r. IC50
- Method: The DNA binding studies and both the in vitro and in vivo antiprotozoan studies were performed as described by Ismail. M. A., et al., J. Med. Chem., 46, 4761-4769 (2003), which is incorporated herein by reference in its entirety. […]
Property Name: log10 of IC50 (log10 of the value in nM)

Compound | log10 of IC50
N=C(N)c1ccc(-c2ccc(-c3cn4c(n3)CCC(C(=N)N)C4)o2)cc1 (stereo not shown) | 1.72
Cc1cc(C(=N)N)cn2cc(-c3ccc(-c4ccc(C(=N)N)cc4)o3)nc12 | 0.78
N=C(N)c1ccc(-c2cccc(-c3cn4c(n3)CCC(C(=N)N)C4)c2)cc1 (stereo not shown) [Compound 13b] | 2.35
N=C(N)c1ccc(-c2ccc(-c3cn4c(n3)CCC(C(=N)N)C4)cc2)cc1 (stereo not shown) [Compound 13a] | 2.06
N=C(N)c1ccc(-c2ccc(-c3cn4cc(C(=N)N)ccc4n3)o2)cc1 | 1.80
N=C(NO)c1ccc(-c2ccc(-c3cn4cc(C(=N)NO)ccc4n3)o2)cc1 | 3.34
N=C(N)c1ccc(-c2cccc(-c3cn4cc(C(=N)N)ccc4n3)c2)cc1 [Compound 14b] | 1.34
CONC(=N)c1ccc(-c2ccc(-c3ccc(C(=N)NOC)cc3)o2)cc1 [Compound IIIa, 2,5-Bis[4-(methoxyamidino)phenyl]furan, reference compound] | 0.65
CONC(=N)c1ccc(-c2ccc(-c3cn4cc(C(=N)NOC)ccc4n3)o2)cc1 | 3.48
Cc1cc(C(=N)N)cn2cc(-c3cccc(-c4ccc(C(=N)N)cc4)c3)nc12 [Compound 14c] | 1.69
CONC(=N)c1ccc(-c2ccc(-c3cn4cc(C(=N)NOC)ccc4n3)cc2)cc1 | 3.72
N=C(N)c1ccc(-c2ccc(-c3cn4cc(C(=N)N)ccc4n3)cc2)cc1 [Compound 14a] | 0.00
